Values compiled from patent US20230233569A1.

# assayedSystem: NRAS G12C (Homo sapiens, UniProt P01111+P62937, G12C)
# Sequence (P01111 whole entry G12C, one chain of several): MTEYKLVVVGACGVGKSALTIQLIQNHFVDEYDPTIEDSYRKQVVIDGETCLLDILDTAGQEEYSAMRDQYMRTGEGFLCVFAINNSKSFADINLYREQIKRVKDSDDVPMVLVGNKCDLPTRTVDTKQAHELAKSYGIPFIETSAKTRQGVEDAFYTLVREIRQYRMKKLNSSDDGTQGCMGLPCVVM
# assayOverview: Ras-Raf disruption / FRET / MOA assay (BRAF RBD)
# Type: biochemical
# recordedConditions: NRAS G12C; read-out: NRAS G12C FRET data IC50
pIC50: −log10 of the molar value.
What pIC50 was measured for each of the following?

Example entries and their recorded answers appear below.
| compound | pIC50 |
| --- | --- |
| CCn1c(-c2cccnc2[C@H](C)OC)c2c3cc(ccc31)-c1cc(O)cc(c1)C[C@H](NC(=O)[C@H](C(C)C)N(C)C(=O)c1ccc([C@@H]3CN3)cc1)C(=O)N1CCC[C@H](N1)C(=O)OCC(C)(C)C2 [Example 131] | 7.00 to 8.00 |
| CCn1c(-c2cccnc2[C@H](C)OC)c2c3cc(ccc31)-c1cccc(c1)C[C@H](NC(=O)[C@H](C(C)C)N(C)C(=O)[C@H]1CC[C@H](N=C=NC34CC(C3)C4)C1)C(=O)N1CCC[C@H](N1)C(=O)OCC(C)(C)C2 [Example 123] | 6.00 to 7.00 |
| CCn1c(-c2cccnc2[C@H](C)OC)c2c3cc(ccc31)-c1cccc(c1)C[C@H](NC(=O)[C@H](C(C)C)N(C)C(=O)[C@H]1CCN(C(=O)[C@H]3CN3)C1)C(=O)N1CCC[C@H](N1)C(=O)OCC(C)(C)C2 [Example 106] | 7.00 to 8.00 |

Just so you know, measured pIC50 for CCn1c(-c2cccnc2[C@H](C)OC)c2c3cc(ccc31)-c1cc(O)cc(c1)C[C@H](NC(=O)[C@H](C(C)C)N1CCC3(CN(C(=O)[C@@H]4CN4)C3)C1=O)C(=O)N1CCC[C@H](N1)C(=O)OCC(C)(C)C2 [Example 109] came out at > 8.00

###

What pIC50 was measured for each of the following?
# assayedSystem: NRAS Q61K (Homo sapiens, UniProt P01111+P62937, Q61K)
# Sequence (P01111 whole entry Q61K): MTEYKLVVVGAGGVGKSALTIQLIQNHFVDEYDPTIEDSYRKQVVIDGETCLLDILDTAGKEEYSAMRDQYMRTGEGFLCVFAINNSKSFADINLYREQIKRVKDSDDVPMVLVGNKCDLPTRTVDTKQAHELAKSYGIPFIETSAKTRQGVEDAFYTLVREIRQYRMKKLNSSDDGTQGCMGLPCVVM
# Sequence (P62937 whole entry): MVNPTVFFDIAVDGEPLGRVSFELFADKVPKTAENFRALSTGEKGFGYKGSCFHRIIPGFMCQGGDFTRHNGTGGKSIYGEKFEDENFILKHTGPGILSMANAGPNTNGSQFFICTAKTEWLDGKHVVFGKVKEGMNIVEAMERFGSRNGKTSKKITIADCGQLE
# assayOverview: Ras-Raf disruption / FRET / MOA assay (BRAF RBD)
# Assay type: biochemical
# recordedConditions: NRAS Q61K; read-out: NRAS Q61K FRET data IC50
pIC50: −log10 of the molar value.

| compound | pIC50 |
| --- | --- |
| CCn1c(-c2cccnc2[C@H](C)OC)c2c3cc(ccc31)-c1cc(O)cc(c1)C[C@H](NC(=O)[C@H](C(C)C)N(C)C(=O)[C@H]1C[C@H]3CC[C@@H](C1)N3C(=O)[C@@H]1CN1)C(=O)N1CCC[C@H](N1)C(=O)OCC(C)(C)C2 (atropisomer, axis not shown) | 7.00 to 8.00 |

Just so you know, measured pIC50 for `CCn1c(-c2cccnc2[C@H](C)OC)c2c3cc(ccc31)-c1csc(n1)C[C@H](NC(=O)[C@H](C(C)C)N(C)C(=O)N1CCN(C(=O)[C@H]3CN3)[C@H](C)C1)C(=O)N1CCC[C@H](N1)C(=O)OCC(C)(C)C2` came out at 7.00 to 8.00

###

# assayedSystem: KRAS G12V (Homo sapiens, UniProt P01116+P62937, G12V)
# Sequence (P01116 1-169 isoform P01116-2 G12V limits assumed, one chain of several): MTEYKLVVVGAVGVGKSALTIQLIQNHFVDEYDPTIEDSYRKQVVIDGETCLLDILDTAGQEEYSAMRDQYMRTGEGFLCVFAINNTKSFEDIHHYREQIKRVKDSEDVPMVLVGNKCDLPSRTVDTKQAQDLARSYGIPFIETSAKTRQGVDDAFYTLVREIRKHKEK
# assayOverview: Disruption of BRAF RBD interaction with Ras (FRET / MOA assay, with Cyclophilin A)
# Assay type: biochemical
# recordedConditions: KRAS G12V; read-out: KRAS G12V FRET data IC50
quantityName: IC50

Example entries and their recorded answers appear below.
| molecule | IC50 |
| --- | --- |
| CCn1c(-c2cccnc2[C@H](C)OC)c2c3cc(ccc31)-c1csc(n1)C[C@H](NC(=O)[C@H](C(C)C)N(C)C(=O)[C@@H]1CCN(C)[C@@H]1c1ccccc1)C(=O)N1CCC[C@H](N1)C(=O)OCC(C)(C)C2 [Example A464] | 1 to 10 µM |
| CCn1c(-c2cccnc2[C@@H]2CCCO2)c2c3cc(ccc31)-c1csc(n1)C[C@H](NC(=O)[C@H](C(C)C)N(C)C(=O)N1CC(N(C)C)C1)C(=O)N1CCC[C@H](N1)C(=O)OCC(C)(C)C2 (atropisomer, axis not shown) [Example A327] | > 10 µM |
| CCn1c(-c2cccnc2[C@H](C)OC)c2c3cc(ccc31)-c1csc(n1)C[C@H](NC(=O)[C@H](C(C)C)N(C)C(=O)N1CC[C@]13CCCNC3)C(=O)N1CCC[C@H](N1)C(=O)OCC(C)(C)C2 [Example A434] | 1 to 10 µM |
| CCn1c(-c2cccnc2[C@H](C)OC)c2c3cc(ccc31)-c1cc(C#N)cc(c1)C[C@H](NC(=O)[C@H](C(C)C)N(C)C(C)=O)C(=O)N1CCC[C@H](N1)C(=O)OCC(C)(C)C2 (atropisomer, axis not shown) [Example A430] | > 10 µM |
| CCn1c(-c2cccnc2[C@H](C)OC)c2c3cc(ccc31)-c1csc(n1)C[C@H](NC(=O)[C@H](C(C)C)N(C)C(=O)N1CC([C@H](C)NC)C1)C(=O)N1CCC[C@H](N1)C(=O)OCC(C)(C)C2 [Example A535] | 0.1 to 1 µM |
| CCn1c(-c2cccnc2[C@H](C)OC)c2c3cc(ccc31)-c1csc(n1)C[C@H](NC(=O)[C@H](C(C)C)N(C)C(=O)N(C)C1(COC)COC1)C(=O)N1CCC[C@H](N1)C(=O)OCC(C)(C)C2 [Example A455] | 1 to 10 µM |
| CCn1c(-c2ccccc2CN(C)C)c2c3cc(ccc31)-c1cc(O)cc(c1)C[C@H](NC(=O)[C@H](C(C)C)N(C)C(=O)[C@H]1CCN(C(=O)/C=C/CN(C)C)C1)C(=O)N1CCC[C@H](N1)C(=O)OCC(C)(C)C2 [Example A047] | 0.1 to 1 µM |
| CCn1c(-c2cnccc2COC)c2c3cc(ccc31)-c1cc(O)cc(c1)C[C@H](NC(=O)[C@H](C(C)C)N(C)C(=O)[C@@H]1CCOC1)C(=O)N1CCC[C@H](N1)C(=O)OCC(C)(C)C2 [Example A94] | 0.1 to 1 µM |

Here is another molecule to look at.
Just so you know, measured IC50 for CCn1c(-c2cccnc2[C@H](C)OC)c2c3cc(ccc31)-c1csc(n1)C[C@H](NC(=O)[C@H](C(C)C)N(C)C(=O)N1CC(N(C)C3CC3)C1)C(=O)N1CCC[C@H](N1)C(=O)OCC(C)(C)C2 (atropisomer, axis not shown) [Example A285] came out at 0.1 to 1 µM
